src = the antibiotic and cytotoxicity screens of Wong et al. (2023)

Test system: S. aureus RN4220
Assay: growth inhibition call (relative growth <= 0.2)
Settings: 50 µM
About 500 (1.3%) of roughly 39,000 compounds were called active. The entries come from a sample that favours actives as a whole.
Output constraint: value belongs to true for active, false for inactive

Consider the worked cases shown below.
[
  {
    "compound.smiles": "COCC#Cc1ccc2c(c1)O[C@@H](CN(C)S(=O)(=O)c1ccc(OC)cc1)[C@@H](C)CN([C@H](C)CO)S2(=O)=O",
    "category.label": "false"
  },
  {
    "compound.smiles": "C[C@@H]1CN([C@H](C)CO)C(=O)Cc2cc(NC(=O)C3CCCCC3)ccc2O[C@@H]1CN(C)Cc1ccc(C(F)(F)F)cc1",
    "category.label": "false"
  },
  {
    "compound.smiles": "C=C[C@H]1CCC=C2C(=O)CCC[C@@H]21",
    "category.label": "false"
  },
  {
    "compound.smiles": "CS(=O)(=O)CCNCc1ccc(-c2ccc3ncnc(Nc4ccc(OCc5cccc(F)c5)c(Cl)c4)c3c2)o1",
    "category.label": "false"
  },
  {
    "compound.smiles": "CCCCc1oc2ccc(NS(C)(=O)=O)cc2c1C(=O)c1ccc(OCCCN(CCCC)CCCC)cc1.Cl",
    "category.label": "false"
  }
]

Now take the following compound into account.
Could you check what this test reported for `COc1ccc(NC(=O)N(C)C[C@H]2Oc3ncc(C#C[C@@H](C)O)cc3C(=O)N([C@@H](C)CO)C[C@H]2C)cc1` ?
false
